- system-name: hPepT1 (Homo sapiens)
- Construct: expressed in transfected cells; host or cells: DC5 cells (hPepT1 over-expressing cell line)
- Sequence (P46059 whole entry): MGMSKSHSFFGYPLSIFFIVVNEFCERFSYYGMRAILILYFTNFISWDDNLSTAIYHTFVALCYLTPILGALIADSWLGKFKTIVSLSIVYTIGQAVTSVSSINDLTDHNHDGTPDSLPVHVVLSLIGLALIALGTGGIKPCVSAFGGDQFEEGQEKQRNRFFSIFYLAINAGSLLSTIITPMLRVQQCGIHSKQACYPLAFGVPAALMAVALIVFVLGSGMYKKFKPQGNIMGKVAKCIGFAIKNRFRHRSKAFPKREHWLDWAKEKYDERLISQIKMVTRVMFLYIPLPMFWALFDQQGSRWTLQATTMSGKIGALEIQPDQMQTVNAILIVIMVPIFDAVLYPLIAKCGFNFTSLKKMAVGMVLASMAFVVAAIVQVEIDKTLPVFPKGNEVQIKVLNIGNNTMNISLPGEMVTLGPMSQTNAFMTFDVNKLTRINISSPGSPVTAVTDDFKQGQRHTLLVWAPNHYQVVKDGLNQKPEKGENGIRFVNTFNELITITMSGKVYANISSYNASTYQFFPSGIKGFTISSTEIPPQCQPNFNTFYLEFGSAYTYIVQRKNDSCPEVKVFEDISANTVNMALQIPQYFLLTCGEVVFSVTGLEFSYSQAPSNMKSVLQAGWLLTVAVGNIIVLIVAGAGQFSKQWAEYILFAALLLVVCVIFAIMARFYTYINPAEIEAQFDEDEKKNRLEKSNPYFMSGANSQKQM
- measurement-description: Competitive binding (3H Gly-Sar uptake inhibition) in hPepT1 over-expressing DC5 cells
- Format: cell-based
measure-name: pKi
Lab note: report pKi as minus log10 of the concentration in molar units, number only.

{"columns": ["compound", "system-name", "pKi"],
 "data": [
  ["COC(=O)[C@H](COP1(=O)CO[C@@H](Cn2ccc(N)nc2=O)CO1)NC(=O)[C@@H](N)C(C)C (mixture of isomers)", "hPepT1 (Homo sapiens)", 2.57]
]}

Consider the additional compound presented here.
Fill in the recorded pKi for this compound, with hPepT1 (Homo sapiens) as test system: COC(=O)C(COP1(=O)COC(Cn2ccc(N)nc2=O)CO1)NC(=O)C(C)N (centres unmarked)
2.47

====

- measurement-description: Single pass intestinal perfusion with portal vein blood collection
- Assay type: in vivo, rat
- study-conditions: rat in situ single pass intestinal perfusion, portal vein plasma, pH 7.5 buffer
measure-name: Pe-mes (mesenteric permeability) (cm/s × 10^5)
Kindly answer with a numeric value in cm/s × 10^5, unit omitted.

{"columns": ["compound", "unit-of-measure", "reported"],
 "data": [
  ["COC(=O)[C@H](COP1(=O)CO[C@@H](Cn2ccc(N)nc2=O)CO1)NC(=O)[C@@H](N)C(C)C (mixture of isomers) [Compound 4, cHPMPC-Val-Ser(OMe)]", "cm/s × 10^5", 1.18],
  ["Nc1ccn(C[C@H]2COP(=O)(O)CO2)c(=O)n1 [Cyclic cidofovir, reference compound]", "cm/s × 10^5", 0.003],
  ["COC(=O)C(COP1(=O)COC(Cn2ccc(N)nc2=O)CO1)NC(=O)C(C)N (centres unmarked) [Compound 6, cHPMPC-Ala-Ser(OMe)]", "cm/s × 10^5", 0.98],
  ["Nc1ccn(C[C@@H](CO)OCP(=O)(O)O)c(=O)n1 [Cidofovir, reference compound]", "cm/s × 10^5", 0.052]
]}

Please turn your attention to the following entry.
Find the recorded Pe-mes (mesenteric permeability) belonging to COC(=O)[C@H](COP1(=O)CO[C@@H](Cn2ccc(N)nc2=O)CO1)NC(=O)[C@@H](N)CC(C)C (mixture of isomers) [Compound 7, cHPMPC-Leu-Ser(OMe)] and report it.
0.48

Source: patent US8063209B2
